biological target: CAL PDZ domain (CALP), wild type (UniProt Q9HD26 278-362); test: fluorescence anisotropy displacement of a fluorescent reporter peptide; apparent Ki, not significantly different from Rh2(OAc)4
Property name: Ki (µM)
Kindly answer with a numeric value in µM, unit omitted.

Ask: Bench note: what Ki did Ac-VQD(dirhodium)TRL-OH (also: dirhodium metal complex at Asp side-chain carboxylate) [VQD^RhTRL metallopeptide] show?
Reply: 6.3
